The measurements presented in this section are drawn from the supplement of paper PMC9170038.

- Tested on: K4 kissing-loop RNA reporter;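 also: bound reporter read as fluorescence of individual clusters on recovered sequencing chips by microscopy, with normalized cluster intensities fitted with a binding model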
- run_description: apparent KD of K4 kissing-loop reporter; higher = weaker reporter binding
- measurement_conditions: Eterna round: R107; input ligand: arginine 13.2 mM
Give measured apparent KD of K4 kissing-loop reporter for each item. Keep answers brief.
Numbers only, in nM.

Consider the reported apparent KD of K4 kissing-loop reporter for these sequences:
{"columns": ["polymer_sequence", "apparent KD of K4 kissing-loop reporter / nM"],
 "data": [
  ["UGCUUUAUCAGAAGGAGCGGGUUGUUCAUAAUAAUAAUCAGUGAUGUUGAUAUAUGAUGAUUCCAGGUAGGUCGCUGAUAUAGCU [KL-XARG-B2]", 214],
  ["AUUAUAAAGUCGGCCGCCACUGAGAGUAGUGAUGUUACUCUUUUCCUUUAGAUAUUAUAUUUUAUCAGGACCGGGACAUCAGAUU [JR_ExcTryptoB_Sub020]", 170],
  ["AACCACUCGUUACAUCACUAUCGAGUGGAACGAGGACCGGUACGGCCGCCACUCGAUAAGAUGCAGUGAUGUUGCAUCUAAGAAU [KL-SSTryp-A (BrourdMod)5 #dotplot2 strengthened]", 168]
]}

For each of the items listed, what is its apparent KD of K4 kissing-loop reporter?
1. UGUUAUGUAUCAGGAUAUUAGUGAUGUUUGUUUAUGUUAGUGAUGUUGAUAUUUGUUUUAUGUAUUUAAGAAGGGAUUGAGAUGU [dcdmullin]
2. ACGUAGUUCUAGGAUACCAGCCAAGGAGGGUAGGACAAAAGUCCUGUAGCCAGUGAUGUUGGCCCUUGGCAGCCUAGAACUACGA [Omei KL Theo B Exc B v3]
3. UAUUUAAAUAAAAUAAAAUAAAUUGCUGAUACCAGAGCCAAUUGGCUCCCUUGGCAGCGGAUCGAGUGAUGUUCGUAAAAUUUAU [AK2 SS Theophylline A]
4. UGUCAUUGGUCUGAUACCAGUUGAUAAACUGGAGUGAUGUUCCAAGAACGAGAAACUCGCAACCCUUGGCAGCAGACCGAUGACU [TheoBS 17 #SwitchBubble 13 #StaticStem]
5. AGUGAUGUGGGAAGGAGCGCUAUAAGACUUCAGUGAUGUUGAAGUGCUGGUUUAGUGUUGUAGCAGGUAGGUCGCCUAGAUGUUA [KL-XARG-B11]
6. CCUGCGGCUUCCGGCGGGCCCGAUUUAUAAAAGGAUAUGUGCGUACACAGAAGGUUUAACGAGGGACCGAGAGUGAUGUUCUCCU [theeternabot_sameState_KL_FMN_A_33]
7. UGUCAUGGAAACAUGAACGUUAAAAUAAAUCGAGGACCGGUACGGCCGCCACUCGUAUAGCGGUCAGUGAUGUUGACUGUAGUAC [KL-SSTryp-A form2 sub11 #dotplot2>1]
8. AUAAUAAAGACGGCCGCCACUGAGAGUAGUGAUGUUACUCUUUUCCUUUAGAAAUAAUAUUUUAUCAGGACCGGGUUUUUUGAAU [JR_Nu_ExcTryptoB_Sub026]

a:
19.8
183
65.4
66.9
239
174
110
81.1

For each of the items listed, what is its apparent KD of K4 kissing-loop reporter?
1. CGUAGCAGAUGAAGGAGCGGCUACCUGUAUCAGGCAACUGCCUGAGUGAUGUUCAGGUAUAGCCAGGUAGGUCGCAUCUGCUACG [Arg B Ex t9b]
2. AAUUUAUUAACUGAUACCAGACUUAAUUAAUUGUAAAUUACUAGUGAUGUUAGUGAUUCUGUCCCUUGGCAGCAGUAUUUAUUAA [JR_ExcTheophyB_Sub011]
3. AGUGAUGUGGGAAGGAGCGCUACAUCACUUCAGUGAUGUUGAAGUGAUGAAUUAGUGAUGUAGCAGGUAGGUCGCCUAGAUGUUA [KL-XARG-B12]

a:
1: 206; 2: 120; 3: 38.5
